Known IC50 of a selection of compounds
Target: Recombinant human DDR2 (Homo sapiens (Human), UniProt Q16832)
Sequence (Q16832 427-855): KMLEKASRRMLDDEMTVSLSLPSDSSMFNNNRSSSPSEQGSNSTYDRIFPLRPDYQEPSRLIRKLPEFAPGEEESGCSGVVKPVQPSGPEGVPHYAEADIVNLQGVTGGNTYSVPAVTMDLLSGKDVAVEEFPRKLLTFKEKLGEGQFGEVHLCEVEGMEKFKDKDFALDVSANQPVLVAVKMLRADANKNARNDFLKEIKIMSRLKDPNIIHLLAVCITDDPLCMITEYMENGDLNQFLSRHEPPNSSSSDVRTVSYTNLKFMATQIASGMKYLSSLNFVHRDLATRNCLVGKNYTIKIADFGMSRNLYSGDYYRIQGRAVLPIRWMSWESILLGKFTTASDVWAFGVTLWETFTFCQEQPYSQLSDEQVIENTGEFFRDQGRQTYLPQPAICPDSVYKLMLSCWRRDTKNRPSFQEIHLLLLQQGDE
Experiment: LanthaScreen Eu Kinase Binding Assay, DDR2
Details: DDR2 1.75 nM (aa427-855, GST tag), Kinase Tracer 178 10 nM; read-out: DDR2 pIC50 (converted)

For orientation, consider the following solved cases.
>>> df
                                   compound  assay_metric         value
0  Cn1ncc2cc(Nc3cccc4c3C(=O)N(CC(=O)Nc3cncc(C(F)(F)F)c3)C4)cnc21          IC50  10 to 100 nM
1  CC1c2cccc(Nc3ccc4c(cnn4C)c3)c2C(=O)N1CC(=O)NCC(F)(F)F (stereo not shown)          IC50  10 to 100 nM
2  Cc1n[nH]c2cc(Nc3cccc4c3C(=O)N(CC(=O)N3CCO[C@H](C(F)(F)F)C3)C4)ccc12          IC50  10 to 100 nM
3  Cc1n[nH]c2cc(Nc3cccc4c3C(=O)N(CC(=O)N3CCCC[C@H]3C(F)(F)F)C4)ccc12          IC50       < 10 nM
4  Cn1ncc2cc(Nc3cccc4c3C(=O)N(CC(=O)Nc3cccc(C(C)(C)O)c3)C4)ccc21          IC50  10 to 100 nM

Q: Output IC50 of "Cc1n[nH]c2cc(Nc3cccc4c3C(=O)N(CC(=O)N3CCC[C@H]3C(F)(F)F)C4)cc(F)c12"
Ans: < 10 nM

Q: Output IC50 of "CN(CC(F)(F)F)C(=O)CN1Cc2cccc(Nc3ccc4c(cnn4C)c3)c2C1=O"
Ans: 10 to 100 nM

====

Known IC50 of a selection of compounds
Target: Recombinant human DDR2 (Homo sapiens (Human))
Assay: LanthaScreen Eu Kinase Binding Assay, DDR2
Details: DDR2 1.75 nM (aa427-855, GST tag), Kinase Tracer 178 10 nM; read-out: DDR2 pIC50 (converted)

For orientation, consider the following solved cases.
                                   compound                                    target  assay_metric           value
0  Cc1n[nH]c2cc(Nc3cccc4c3C(=O)N(CC(=O)N3CCC[C@H]3C(F)(F)F)C4)cnc12 [Example 67]  Recombinant human DDR2 (Homo sapiens (Human))          IC50         < 10 nM
1  O=C(CN1Cc2cccc(Nc3ccc4[nH]ncc4c3)c2C1=O)NCC(F)(F)F [Example 21]  Recombinant human DDR2 (Homo sapiens (Human))          IC50    10 to 100 nM
2  Cn1ncc2cc(Nc3cccc4c3C(=O)N(CC(=O)N3CC(F)(F)C3)C4)ccc21 [Example 19]  Recombinant human DDR2 (Homo sapiens (Human))          IC50  100 to 1000 nM
3  Cn1ncc2cc(Nc3cccc4c3C(=O)N(CC(=O)N3CCO[C@@H](C(F)(F)F)C3)C4)cnc21 [Example 55]  Recombinant human DDR2 (Homo sapiens (Human))          IC50  100 to 1000 nM
4  Cn1ncc2cc(Nc3cccc4c3C(=O)N(CC(=O)Nc3cccc(C(F)(F)F)c3)C4)ccc21 [Example 5]  Recombinant human DDR2 (Homo sapiens (Human))          IC50    10 to 100 nM
5  Cc1n[nH]c2cc(Nc3cccc4c3C(=O)N(CC(=O)N3CC(C(F)(F)F)C3)C4)ccc12 [Example 34]  Recombinant human DDR2 (Homo sapiens (Human))          IC50    10 to 100 nM
6  Cn1ncc2cc(Nc3cccc4c3C(=O)N(CC(=O)N3CCOC[C@H]3C(F)(F)F)C4)ccc21 [Example 44]  Recombinant human DDR2 (Homo sapiens (Human))          IC50  100 to 1000 nM
7  Cn1ncc2cc(Nc3cccc4c3C(=O)N(CC(=O)N3CCC[C@H]3C(F)F)C4)cnc21 [Example 58]  Recombinant human DDR2 (Homo sapiens (Human))          IC50    10 to 100 nM
8  Cn1ncc2cc(Nc3nccc4c3C(=O)N(CC(=O)N3CCC[C@H]3C(F)(F)F)C4)ccc21 [Example 97]  Recombinant human DDR2 (Homo sapiens (Human))          IC50  100 to 1000 nM
9  Cn1ncc2cc(Nc3cccc4c3C(=O)N(CC(=O)Nc3cccc(C(F)(F)F)c3)C4)cnc21 [Example 59]  Recombinant human DDR2 (Homo sapiens (Human))          IC50  100 to 1000 nM

Q: Output IC50 of Cn1ncc2cc(Nc3cccc4c3C(=O)N(CC(=O)N3CCOC[C@@H]3C(F)(F)F)C4)cnc21 [Example 57]
Ans: ≥ 1000 nM

Q: Output IC50 of Cc1n[nH]c2cc(Nc3cccc4c3C(=O)N(CC(=O)N3CCOC(C(F)(F)F)C3)C4)ccc12 (stereo not drawn) [Example 38]
Ans: 10 to 100 nM

The measurements presented in this section are drawn from patent US20260069571A1.
